Reference source: patent US12692234B2

# experimental-system: ROCK2 (Homo sapiens, UniProt O75116)
# Sequence (O75116 whole entry): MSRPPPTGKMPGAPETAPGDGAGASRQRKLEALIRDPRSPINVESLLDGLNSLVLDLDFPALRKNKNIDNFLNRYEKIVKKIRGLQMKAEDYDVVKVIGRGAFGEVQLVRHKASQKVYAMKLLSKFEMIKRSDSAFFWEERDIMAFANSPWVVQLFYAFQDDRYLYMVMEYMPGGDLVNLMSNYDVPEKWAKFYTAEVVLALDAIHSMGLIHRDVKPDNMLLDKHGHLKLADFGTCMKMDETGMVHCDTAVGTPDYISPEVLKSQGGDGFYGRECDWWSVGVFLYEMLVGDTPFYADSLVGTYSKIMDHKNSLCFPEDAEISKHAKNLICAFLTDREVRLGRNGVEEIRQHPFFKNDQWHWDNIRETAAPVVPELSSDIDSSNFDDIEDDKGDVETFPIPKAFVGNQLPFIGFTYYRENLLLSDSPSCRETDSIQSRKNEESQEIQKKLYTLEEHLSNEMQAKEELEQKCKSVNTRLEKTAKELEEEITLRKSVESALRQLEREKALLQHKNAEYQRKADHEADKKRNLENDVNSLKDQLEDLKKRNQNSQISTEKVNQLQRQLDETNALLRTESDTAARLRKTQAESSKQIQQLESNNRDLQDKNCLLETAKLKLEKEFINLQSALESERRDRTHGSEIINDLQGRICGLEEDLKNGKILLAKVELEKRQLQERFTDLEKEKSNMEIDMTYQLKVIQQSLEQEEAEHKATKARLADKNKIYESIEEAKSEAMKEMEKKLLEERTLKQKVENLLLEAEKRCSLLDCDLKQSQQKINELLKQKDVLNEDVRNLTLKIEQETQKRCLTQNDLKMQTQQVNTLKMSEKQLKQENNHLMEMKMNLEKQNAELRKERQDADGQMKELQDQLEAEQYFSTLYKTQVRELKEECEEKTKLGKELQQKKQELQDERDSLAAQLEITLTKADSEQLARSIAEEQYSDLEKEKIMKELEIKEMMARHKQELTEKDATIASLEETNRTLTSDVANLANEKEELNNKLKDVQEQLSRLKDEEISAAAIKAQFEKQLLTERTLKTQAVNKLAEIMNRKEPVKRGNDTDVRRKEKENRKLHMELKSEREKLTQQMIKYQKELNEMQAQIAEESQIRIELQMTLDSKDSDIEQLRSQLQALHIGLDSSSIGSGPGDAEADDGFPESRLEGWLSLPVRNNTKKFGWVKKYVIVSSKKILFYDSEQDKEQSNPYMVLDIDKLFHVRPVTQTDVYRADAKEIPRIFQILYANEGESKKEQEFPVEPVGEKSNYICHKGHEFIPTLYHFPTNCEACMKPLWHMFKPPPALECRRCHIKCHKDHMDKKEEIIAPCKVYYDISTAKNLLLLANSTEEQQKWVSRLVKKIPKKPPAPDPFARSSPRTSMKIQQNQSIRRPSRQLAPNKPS
# measurement-parameters: read-out: Ki (nM) ROCK2
quantity-kind: Ki (nM)
API: value field is a number in nM; no unit string.

State the recorded Ki for this entry: NC[C@@H](C(=O)Nc1ccc2cnccc2c1)c1ccc(CO)cc1
0.2

* * *

# experimental-system: UniProt Q13464
# Sequence (Q13464 whole entry): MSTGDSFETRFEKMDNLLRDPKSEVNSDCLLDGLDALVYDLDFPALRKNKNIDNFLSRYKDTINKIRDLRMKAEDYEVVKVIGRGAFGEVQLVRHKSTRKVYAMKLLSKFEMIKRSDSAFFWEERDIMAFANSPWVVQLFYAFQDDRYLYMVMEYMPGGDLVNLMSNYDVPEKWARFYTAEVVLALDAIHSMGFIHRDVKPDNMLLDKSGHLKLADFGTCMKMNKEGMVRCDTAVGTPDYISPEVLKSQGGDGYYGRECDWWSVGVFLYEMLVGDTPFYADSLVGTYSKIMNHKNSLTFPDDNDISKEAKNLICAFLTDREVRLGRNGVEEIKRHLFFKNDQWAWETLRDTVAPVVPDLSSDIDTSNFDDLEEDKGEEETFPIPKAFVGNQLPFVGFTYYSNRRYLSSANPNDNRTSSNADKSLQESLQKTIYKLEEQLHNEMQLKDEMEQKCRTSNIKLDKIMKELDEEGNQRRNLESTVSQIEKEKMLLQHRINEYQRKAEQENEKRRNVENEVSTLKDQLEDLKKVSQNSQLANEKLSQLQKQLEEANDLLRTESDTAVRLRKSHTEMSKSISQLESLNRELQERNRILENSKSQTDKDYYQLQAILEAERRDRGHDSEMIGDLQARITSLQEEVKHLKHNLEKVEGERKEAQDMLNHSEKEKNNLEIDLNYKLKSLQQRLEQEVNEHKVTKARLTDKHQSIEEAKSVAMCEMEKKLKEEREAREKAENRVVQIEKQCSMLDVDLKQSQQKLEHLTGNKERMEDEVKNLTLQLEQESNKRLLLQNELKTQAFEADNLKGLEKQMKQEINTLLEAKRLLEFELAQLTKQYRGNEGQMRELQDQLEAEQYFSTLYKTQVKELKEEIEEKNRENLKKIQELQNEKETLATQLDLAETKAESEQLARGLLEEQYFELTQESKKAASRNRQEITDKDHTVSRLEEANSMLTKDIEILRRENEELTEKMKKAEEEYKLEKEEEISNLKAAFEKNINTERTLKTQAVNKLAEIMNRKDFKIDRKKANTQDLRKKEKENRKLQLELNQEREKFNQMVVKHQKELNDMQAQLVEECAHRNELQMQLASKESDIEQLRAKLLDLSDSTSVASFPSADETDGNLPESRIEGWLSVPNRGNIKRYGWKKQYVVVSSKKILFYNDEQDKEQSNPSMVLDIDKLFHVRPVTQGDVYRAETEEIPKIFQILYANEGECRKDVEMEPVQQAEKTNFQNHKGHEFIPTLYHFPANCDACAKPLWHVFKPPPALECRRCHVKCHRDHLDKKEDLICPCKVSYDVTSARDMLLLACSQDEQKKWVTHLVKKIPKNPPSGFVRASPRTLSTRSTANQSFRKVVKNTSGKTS
# procedure-summary: Kinase inhibition assay (KINASE-GLO), ROCK1
# Assay type: biochemical
quantity-kind: Ki (nM)
API: value field is a number in nM; no unit string.

Field: Ki (UniProt Q13464). Entry: NC[C@@H](C(=O)Nc1ccc2cnccc2c1)c1ccc(CO)cc1
0.2
